test system: PLK4; conditions: concentration: 1 μM,replicates: in singlicate; n = 1;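 further: KINOMEscan kinase panel screen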
Decide using %Inh: a value greater than or equal to 40% is True, a smaller one is False.

>>> assigned_category("Cc1ccc(CC(=O)N2CCc3cc(-c4cn(C)c5ncnc(N)c45)ccc32)cc1 [GSK2634758]")
"False"
>>> assigned_category("COc1cccc(CNC(=O)NC2CCN(c3ccnc(Nc4cc(OC)c(OC)c(OC)c4)n3)C2)c1 (stereo not drawn) [GSK1379765]")
"True"
>>> assigned_category("Cn1ccc2ncnc(Oc3ccc(NC(=O)Nc4cccc(C(F)(F)F)c4)c(Cl)c3)c21")
"False"
>>> assigned_category("COc1cccc(OC)c1C(=O)Nc1cccc(-c2nn3ccccc3c2-c2ccnc(Nc3cccc(F)c3)n2)c1 [GSK361065]")
"False"
>>> assigned_category("O=C(NCC1CC1)c1ccc(-c2cc(C(=O)NC3CC3)ccc2F)cc1 [GW810445]")
"False"
>>> assigned_category("CSc1nccc(-c2c(-c3ccc(F)cc3)ncn2CCCN2CCOCC2)n1.Cl [SB-217146]")
"False"
>>> assigned_category("Cl.Nc1n[nH]c2cc(-c3ccccn3)ccc12 [GSK2189892]")
"False"
>>> assigned_category("Cc1nnc(-c2ccc3occ(-c4ccc(S(C)=O)cc4)c3n2)o1 (stereo not drawn)")
"False"
>>> assigned_category("CC(C(=O)NC1CCN(c2ccnc(Nc3ccc(F)cc3)n2)C1)c1ccc(Cl)cc1 (stereo not drawn) [GSK1379713]")
"False"
>>> assigned_category("Cc1ccc(Nc2ccnc(Nc3ccc4c(c3)CS(=O)(=O)C4)n2)cc1O.Cl [GW579362]")
"True"
>>> assigned_category("C[C@@H]1CNc2c(sc3ccc4nc(-c5ccncc5)ccc4c23)C(=O)N1")
"True"
>>> assigned_category("Cn1ccc2ncnc(Oc3ccc(NC(=O)Nc4cccc(C(F)(F)F)c4)c(F)c3)c21")
"False"
>>> assigned_category("C[C@@H]1CCN(C(=O)N2CCCC2)C[C@@H]1N(C)c1ncnc2[nH]ccc12")
"True"
>>> assigned_category("CCn1c(-c2nonc2N)nc2cncc(CNC3CCNCC3)c21.Cl [SB-747651]")
"False"
>>> assigned_category("C[C@@H]1CNc2c(sc3ccc4nc(-c5ccc(O)cc5)ccc4c23)C(=O)N1")
"True"
>>> assigned_category("NC(=O)c1ccc(-c2cc3ncnc(SCC(=O)O)c3s2)cc1")
"True"
>>> assigned_category("O=c1[nH]cc(-c2ccc(O)cc2)c2sc(-c3ccncc3)cc12 [GSK1033723]")
"False"

###

// reported %Inh per item
tested on: MAP3K2; conditions: concentration: 1 μM,replicates: in singlicate; n = 1
Quantity Kind: %Inh (%)

>>> experimental_result("COC(=O)c1cccc(NC(=O)NC2CCN(c3ccnc(NCc4ccc(F)cc4)n3)CC2)c1 [GSK1379860]")
8
>>> experimental_result("C[C@@H](Oc1cc(-n2cnc3cc(-c4ccncc4)ccc32)sc1C(N)=O)c1ccccc1Cl [GSK479719]")
10
>>> experimental_result("O=C(Nc1ccc(Oc2ccc3nc(NC(=O)C4CC4)cn3n2)c(F)c1)c1cccn(-c2ccccc2)c1=O")
0
>>> experimental_result("C[C@@H]1CCN(C(=O)N2CCCC2)C[C@@H]1N(C)c1ncnc2[nH]ccc12")
17
>>> experimental_result("CCOC(=O)N1CCC(n2cnc(-c3ccc(F)cc3)c2-c2ccnc(N)n2)CC1 [SB-219952]")
6
>>> experimental_result("C[C@@H](Oc1cc(-n2cnc3cc(-c4cnn(C)c4)ccc32)sc1C(N)=O)c1ccccc1Cl [GSK580432]")
20
>>> experimental_result("CC(C(=O)NC1CCN(c2ccnc(Nc3ccc(F)cc3)n2)C1)c1ccc(Cl)cc1 (stereo not drawn) [GSK1379713]")
0
>>> experimental_result("Cc1ccc(Nc2ccnc(Nc3ccc4c(c3)CS(=O)(=O)C4)n2)cc1O.Cl [GW579362]")
88
>>> experimental_result("Cl.c1ccc(Oc2ccc(Nc3ccnc4cc(-c5ccc(CN6CCNCC6)o5)ccc34)cc2)nc1 [GW567142]")
0
>>> experimental_result("O=C(NCC1CC1)c1ccc(-c2cc(C(=O)NC3CC3)ccc2F)cc1 [GW810445]")
0
>>> experimental_result("COc1cc2nccc(Nc3ccc(Oc4ccccc4)cc3)c2cc1OC.Cl [GI261656]")
0
>>> experimental_result("COc1cccc(CNC(=O)NC2CCN(c3ccnc(Nc4cc(OC)c(OC)c(OC)c4)n3)C2)c1 (stereo not drawn) [GSK1379765]")
0
>>> experimental_result("COc1ccc(Nc2nccc(N3CCC(NC(=O)c4cccc(C#N)c4)C3)n2)cc1 (stereo not drawn) [GSK1379730]")
0
>>> experimental_result("CC(=O)Nc1nc2cnc(Nc3cc(NC(=O)c4cccc(CC(C)(C)C#N)c4)ccc3C)nc2s1")
0
>>> experimental_result("CC(=O)c1c(-c2ccncc2)[nH]c(-c2ccncc2)c1C [GW493036]")
0
>>> experimental_result("COc1cc2ncn(-c3cc(OCC4CCCCC4)c(C(N)=O)s3)c2cc1OC [GSK204559]")
0
>>> experimental_result("N#Cc1cccc(C(=O)NC2CCN(c3ccnc(Nc4ccc(F)cc4)n3)C2)c1 (stereo not drawn) [GSK1379708]")
11
>>> experimental_result("O=C(NOCC1CC1)c1cc(Br)c(F)c(F)c1Nc1ccc(I)cc1Cl")
0
>>> experimental_result("COc1cc(Nc2nccc(N3CCC(NC(=O)c4cccc(C#N)c4)C3)n2)cc(OC)c1OC (stereo not drawn) [GSK1379751]")
19
>>> experimental_result("CN1CCN(CCCNc2nccc(-c3c(-c4ccc(F)cc4)nn4cc(C(N)=O)ccc34)n2)CC1 [GW622475]")
0
>>> experimental_result("Cn1ccc2ncnc(Oc3ccc(NC(=O)Nc4cccc(C(F)(F)F)c4)c(F)c3)c21")
0

Origin of measurements: paper PMC5540273
